target: Histone-lysine N-methyltransferase NSD2 (Homo sapiens); experiment: Binding affinity to NSD2 PWWP1 domain (unknown origin) assessed as change in aggregation temperature at 500 uM by heating at 25 to 85 degC by differential static light scattering method; settings: filed as antagonist
Outcome Measure: deltaT (°C)

Compound: CN(Cc1ccc(F)cc1)C(=O)c1ccc(C#N)cc1
Assayed Target: Histone-lysine N-methyltransferase NSD2 (Homo sapiens)
Measure Unit: °C
Observed Measurement: 2

Compound: COc1ccc(C2CCCN2C(=O)c2ccc(C#N)cc2)cc1 (stereo not given)
Assayed Target: Histone-lysine N-methyltransferase NSD2 (Homo sapiens)
Measure Unit: °C
Observed Measurement: 2.4

Compound: COC(=O)c1ccc(C(=O)N2CCCC2c2ccc(F)cc2)cc1 (stereo not given)
Assayed Target: Histone-lysine N-methyltransferase NSD2 (Homo sapiens)
Measure Unit: °C
Observed Measurement: 1.4

(1) N#Cc1ccc(C(=O)N2CCCC2c2ccsc2)cc1 (stereo not given)
(2) O=C(c1ccc(N2CNC=N2)cc1)N1CCCC1c1ccc(F)cc1 (stereo not given)
(3) N#Cc1ccc(C(=O)N(CC2CCOC2)C2CC2)cc1 (stereo not given)
Sort entries by deltaT from minimum to maximum value. Please respond by ranking the labels in the order requested.
2, 1, 3

(P) N#Cc1ccc(C(=O)N2CCCC2c2ccncc2)cc1 (stereo not given)
(Q) N#Cc1ccc(C(=O)N(Cc2ccc(F)cc2)C2CCC2)cc1
Min deltaT? P | Q Reply with the label of the item you choose.
Q

----------
biological target: Histone-lysine N-methyltransferase NSD2 (Homo sapiens); assay: Binding affinity to NSD2 PWWP1 domain (unknown origin) assessed as dissociation constant by surface plasmon resonance analysis
pKd: −log10 of the molar value.
Outcome Measure: pKd

Molecule: N#Cc1ccc(C(C(N)=O)N2CCC2c2ccc(Cl)cc2)cc1 (stereo not drawn)
Assayed Target: Histone-lysine N-methyltransferase NSD2 (Homo sapiens)
Observed Measurement: 4.39
--
Molecule: N#Cc1ccc(C(=O)N(Cc2ccc(F)cc2)C2CC2)cc1
Assayed Target: Histone-lysine N-methyltransferase NSD2 (Homo sapiens)
Observed Measurement: 5.15
--
Molecule: COC(=O)c1ccc(C(=O)N2CCCC2c2ccc(F)cc2)cc1 (stereo not drawn)
Assayed Target: Histone-lysine N-methyltransferase NSD2 (Homo sapiens)
Observed Measurement: 3.76
--
Molecule: CN(Cc1ccc(F)cc1)C(=O)c1ccc(C#N)cc1
Assayed Target: Histone-lysine N-methyltransferase NSD2 (Homo sapiens)
Observed Measurement: 4.13

(I) N#Cc1ccc(C(=O)N(Cc2ccc(F)cc2)C2CCC2)cc1
(II) O=C(c1ccc(N2CNC=N2)cc1)N1CCCC1c1ccc(F)cc1 (stereo not drawn)
(III) N#Cc1ccc(C(=O)N(CC2CCOC2)C2CC2)cc1 (stereo not drawn)
Hey, quick one: sort these by pKd, largest value first please. Please respond by ranking the labels in the order requested.
III, I, II

(I) N#Cc1ccc(C(=O)N2CCCC2c2ccccc2)cc1 (stereo not drawn)
(II) N#Cc1ccc(C(=O)N2CCCC2c2ccsc2)cc1 (stereo not drawn)
Task for the reader: decide whether I or II has the larger pKd. Reply with the label of the item you choose.
I

----------
target: Histone-lysine N-methyltransferase NSD2 (Homo sapiens, UniProt O96028); test: Binding affinity to NSD2 PWWP1 domain (unknown origin) assessed as dissociation constant by surface plasmon resonance analysis
Sequence (O96028 whole entry, the tested form may be a part): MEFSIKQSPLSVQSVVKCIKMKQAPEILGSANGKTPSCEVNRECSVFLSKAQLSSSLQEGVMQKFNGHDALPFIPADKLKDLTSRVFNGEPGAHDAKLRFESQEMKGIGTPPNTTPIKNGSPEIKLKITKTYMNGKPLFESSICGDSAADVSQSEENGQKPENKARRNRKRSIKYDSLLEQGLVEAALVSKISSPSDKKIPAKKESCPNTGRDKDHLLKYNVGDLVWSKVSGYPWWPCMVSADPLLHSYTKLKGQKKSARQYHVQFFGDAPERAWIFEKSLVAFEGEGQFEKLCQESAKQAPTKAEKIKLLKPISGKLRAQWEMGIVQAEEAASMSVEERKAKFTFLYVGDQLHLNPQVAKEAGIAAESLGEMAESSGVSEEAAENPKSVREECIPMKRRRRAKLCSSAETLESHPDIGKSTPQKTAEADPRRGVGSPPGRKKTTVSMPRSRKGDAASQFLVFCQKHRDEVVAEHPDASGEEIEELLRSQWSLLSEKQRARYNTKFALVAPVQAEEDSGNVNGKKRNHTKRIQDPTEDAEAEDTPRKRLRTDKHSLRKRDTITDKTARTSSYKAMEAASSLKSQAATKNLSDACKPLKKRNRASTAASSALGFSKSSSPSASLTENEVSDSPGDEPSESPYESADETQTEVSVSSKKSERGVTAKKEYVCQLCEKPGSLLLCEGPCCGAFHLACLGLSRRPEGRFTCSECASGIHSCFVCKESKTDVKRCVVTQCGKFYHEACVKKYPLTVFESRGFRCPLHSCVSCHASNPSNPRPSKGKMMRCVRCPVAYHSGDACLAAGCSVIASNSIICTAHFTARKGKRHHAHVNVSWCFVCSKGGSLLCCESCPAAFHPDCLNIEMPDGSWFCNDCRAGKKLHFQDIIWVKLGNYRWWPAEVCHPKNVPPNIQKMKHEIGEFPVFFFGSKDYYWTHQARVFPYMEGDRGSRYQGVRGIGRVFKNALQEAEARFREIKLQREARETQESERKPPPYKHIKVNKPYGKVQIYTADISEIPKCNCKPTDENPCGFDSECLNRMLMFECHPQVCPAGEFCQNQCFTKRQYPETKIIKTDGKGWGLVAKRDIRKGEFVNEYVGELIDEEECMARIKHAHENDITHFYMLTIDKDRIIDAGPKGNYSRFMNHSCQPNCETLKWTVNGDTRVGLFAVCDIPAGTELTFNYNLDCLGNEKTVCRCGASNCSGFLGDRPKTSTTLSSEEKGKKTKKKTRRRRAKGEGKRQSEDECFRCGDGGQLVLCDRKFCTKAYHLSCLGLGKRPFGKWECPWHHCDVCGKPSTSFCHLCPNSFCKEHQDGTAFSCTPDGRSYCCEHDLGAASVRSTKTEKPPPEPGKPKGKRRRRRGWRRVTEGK
pKd: −log10 of the molar value.
Outcome Measure: pKd

Compound: COc1ccc(C2CCCN2C(=O)c2ccc(C#N)cc2)cc1 (centres undefined)
Observed Measurement: 3.68
--
Compound: N#Cc1ccc(C(=O)N2CCCC2c2ccc3c(c2)OCCO3)cc1 (centres undefined)
Observed Measurement: 3.86
--
Compound: N#Cc1ccc(C(=O)N2CCCC2c2ccc(Cl)cc2)cc1 (centres undefined)
Observed Measurement: 3.76
--
Compound: N#Cc1ccc(C(=O)N2CCCC2c2ccncc2)cc1 (centres undefined)
Observed Measurement: 3.80
